- assayed.target: UniProtKB P05177
- Sequence (P05177 whole entry): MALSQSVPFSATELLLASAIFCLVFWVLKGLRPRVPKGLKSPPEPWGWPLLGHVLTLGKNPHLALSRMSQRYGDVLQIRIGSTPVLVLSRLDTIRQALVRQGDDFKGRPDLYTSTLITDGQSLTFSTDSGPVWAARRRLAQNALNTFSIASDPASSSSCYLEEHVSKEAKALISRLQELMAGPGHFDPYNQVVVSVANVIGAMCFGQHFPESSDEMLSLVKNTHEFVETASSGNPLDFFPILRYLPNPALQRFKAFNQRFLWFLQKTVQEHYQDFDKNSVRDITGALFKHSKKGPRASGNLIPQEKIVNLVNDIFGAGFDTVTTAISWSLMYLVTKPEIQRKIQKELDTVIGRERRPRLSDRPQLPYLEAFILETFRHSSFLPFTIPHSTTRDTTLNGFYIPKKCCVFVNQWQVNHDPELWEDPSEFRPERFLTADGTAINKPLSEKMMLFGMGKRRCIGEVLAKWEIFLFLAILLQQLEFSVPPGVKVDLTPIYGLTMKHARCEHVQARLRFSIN
pIC50: −log10 of the molar value.
quantity.measured: pIC50

Ask | Form entry - test system: UniProtKB P05177; read-out: pIC50; molecule: FC(F)(F)c1cccc2c1nnn2CC1CC1
Reply | < 5.00

----------
Entries and their EC50 values follow.
- assayed.target: Metabotropic glutamate receptor 2 (Homo sapiens, UniProt Q14416)
- Sequence (Q14416 whole entry): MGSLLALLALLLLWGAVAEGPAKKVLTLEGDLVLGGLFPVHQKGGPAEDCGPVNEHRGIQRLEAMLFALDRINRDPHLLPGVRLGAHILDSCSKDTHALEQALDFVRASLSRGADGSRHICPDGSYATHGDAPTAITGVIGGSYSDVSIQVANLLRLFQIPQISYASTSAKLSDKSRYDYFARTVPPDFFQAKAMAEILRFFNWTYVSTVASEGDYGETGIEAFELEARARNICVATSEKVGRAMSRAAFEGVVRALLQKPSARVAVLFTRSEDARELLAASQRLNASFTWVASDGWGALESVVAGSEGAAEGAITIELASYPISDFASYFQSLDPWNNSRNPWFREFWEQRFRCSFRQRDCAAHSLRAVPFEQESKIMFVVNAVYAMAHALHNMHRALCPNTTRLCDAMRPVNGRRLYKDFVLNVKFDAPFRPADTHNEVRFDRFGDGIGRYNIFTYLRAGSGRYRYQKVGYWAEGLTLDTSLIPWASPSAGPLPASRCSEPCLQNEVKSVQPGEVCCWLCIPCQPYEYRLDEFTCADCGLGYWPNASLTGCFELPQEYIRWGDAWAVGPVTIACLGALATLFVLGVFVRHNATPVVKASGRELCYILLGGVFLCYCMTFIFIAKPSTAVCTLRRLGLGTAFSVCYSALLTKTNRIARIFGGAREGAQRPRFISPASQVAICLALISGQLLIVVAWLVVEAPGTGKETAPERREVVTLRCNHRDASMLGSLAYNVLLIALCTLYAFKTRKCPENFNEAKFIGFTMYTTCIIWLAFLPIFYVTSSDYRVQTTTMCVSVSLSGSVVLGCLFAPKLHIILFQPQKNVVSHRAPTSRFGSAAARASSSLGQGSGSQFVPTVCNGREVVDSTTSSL
- experiment: Positive allosteric modulation of human mGluR2 expressed in human Chem1 cells assessed as increase in glutamate-induced intracellular calcium influx preincubated for 30 mins followed by glutamate addition by calcium-5 dye based fluorometric assay
Answer by giving the amount and then stating its unit.

CC(C)Cn1nnc2c(Br)cccc21; 140 nM
Clc1cccc2c1nnn2CC1CC1; 90 nM
Fc1cc(Cl)ccc1-c1ccc(Cn2nnc3c(F)cccc32)cn1; 27 nM
N#Cc1cccc2c1nnn2Cc1ccc(-c2ccc(Cl)cc2F)nc1; 33 nM
Brc1ccc(Cn2nnc3c(Br)cccc32)cn1; 210 nM
Fc1cc(Cl)ccc1Cn1nnc2c(Br)cccc21; 23 nM
Clc1ccc(-c2ccc(Cn3nnc4ccccc43)cn2)cc1; 70 nM

Ask | Requested read-out EC50, target or system Metabotropic glutamate receptor 2 (Homo sapiens, UniProt Q14416), entry Brc1cccc2c1nnn2CC1CCCCC1
Reply | 10 nM

----------
- assayed.target: UniProtKB P08684
- Sequence (P08684 whole entry): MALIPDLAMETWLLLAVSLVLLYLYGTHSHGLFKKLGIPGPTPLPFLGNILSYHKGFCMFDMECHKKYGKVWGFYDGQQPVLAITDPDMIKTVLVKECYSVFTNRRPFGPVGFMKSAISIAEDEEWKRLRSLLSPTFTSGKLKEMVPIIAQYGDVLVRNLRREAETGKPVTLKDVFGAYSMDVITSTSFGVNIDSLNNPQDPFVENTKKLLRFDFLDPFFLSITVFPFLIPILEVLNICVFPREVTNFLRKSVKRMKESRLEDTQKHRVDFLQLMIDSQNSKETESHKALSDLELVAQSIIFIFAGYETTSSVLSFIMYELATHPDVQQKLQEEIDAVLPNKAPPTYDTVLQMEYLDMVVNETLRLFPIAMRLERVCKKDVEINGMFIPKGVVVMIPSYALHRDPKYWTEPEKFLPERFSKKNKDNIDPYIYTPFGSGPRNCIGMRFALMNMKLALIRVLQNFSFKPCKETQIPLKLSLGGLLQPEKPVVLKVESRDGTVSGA
quantity.measured: IC50

Ask | Given the entry FC(F)(F)c1cccc2c1nnn2CC1CC1 , report its measured IC50.
Reply | > 10 µM

----------
- assayed.target: Metabotropic glutamate receptor 2 (Homo sapiens, UniProt Q14416)
- experiment: Positive allosteric modulation of human mGluR2 expressed in human Chem1 cells assessed as increase in glutamate-induced intracellular calcium influx preincubated for 30 mins followed by glutamate addition by calcium-5 dye based fluorometric assay
- Assay type: functional, cell-based
Response field label takes Condition met when EC50 is strictly below 0.03 µM and Condition not met in all other cases.

Example entries begin here.
Fc1ccc(-c2ccc(Cn3nnc4ccccc43)cc2)c(Cl)c1; Condition not met
Brc1cc(Br)c2nnn(CC3CC3)c2c1; Condition not met
Fc1cc(C(F)(F)F)ccc1-c1ccc(Cn2nnc3ccccc32)cc1; Condition met

Ask | Problem: For the compound Fc1ccc(-c2ccc(Cn3nnc4ccccc43)cc2)c(F)c1 , is EC50 under 0.03 µM?
Reply | Condition not met

Ask | Same thing, different compound: FC(F)(F)c1cccc2c1nnn2CC1CC1
Reply | Condition not met

Ask | Param item: FC(F)(F)c1ccc(-c2ccc(Cn3nnc4ccccc43)cc2)c(Cl)c1
Reply | Condition not met

Ask | Can you handle Brc1cccc2c1nnn2CC1CCC1 next?
Reply | Condition met

Ask | Proceed to Fc1cccc2c1nnn2CC1CC1
Reply | Condition not met

----------
- experiment: Lipophilicity, log D of the compound at pH 7.4
- Format: physicochemical
- experimental.setup: buffer
quantity.measured: logD
Answer with a number only.

Fc1cc(Cl)ccc1-c1ccc(Cn2nnc3ccccc32)cn1; 5.48

Ask | Consider the molecule FC(F)(F)c1cccc2c1nnn2CC1CC1 and give its measured logD.
Reply | 3.08

----------
- experiment: Intrinsic clearance in NMRI mouse liver microsomes at 2.5 uM
- Type: ADME, Microsome
Classify by measured Intrinsic clearance: fulfilled if it is equal to or exceeds 2 mL/min/g, not fulfilled if it is smaller.

Observe how each entry below is paired with its result.
Fc1cc(Cn2nnc3c(Br)cccc32)ccc1Cl; fulfilled
Clc1ccc(-c2ccc(Cn3nnc4ccccc43)cc2)c(Cl)c1; not fulfilled
Fc1ccc2nnn(Cc3ccc(-c4ccc(Cl)cc4F)nc3)c2c1; fulfilled
Clc1cc(Br)c2nnn(CC3CC3)c2c1; fulfilled
Fc1cccc(Cn2nnc3c(Br)cccc32)c1; not fulfilled
Brc1cccc2c1nnn2CC1CC1; fulfilled

Ask | Is Intrinsic clearance for CCCCn1nnc2c(Br)cccc21 at or above 2 mL/min/g?
Reply | fulfilled

Ask | Next: N#Cc1cccc2c1nnn2Cc1ccc(-c2ccc(Cl)cc2F)nc1
Reply | not fulfilled

----------
- experiment: Intrinsic clearance in human liver microsomes at 2.5 uM
- Format: ADME, Microsome
Below is a list of entries, each paired with its recorded Intrinsic clearance value.
Only the number, expressed in mL/min/g, is required.

Fc1cc(Cl)ccc1-c1ccc(Cn2nnc3c(Br)cccc32)cn1; 0.1

Ask | For the compound Clc1ccc(-c2ccc(Cn3nnc4ccccc43)cc2)c(Cl)c1 , what Intrinsic clearance is on record?
Reply | 0.6

Ask | What do you get for Fc1cc(Cl)ccc1Cn1nnc2c(Br)cccc21 ?
Reply | 0.5

Ask | What do we get for c1ccc(-c2ccc(Cn3nnc4ccccc43)cc2)cc1 ?
Reply | 7.9

Ask | Try Fc1cc(Br)c2nnn(CC3CC3)c2c1 next.
Reply | 0.4

Ask | Another: Fc1ccc(Cn2nnc3c(Br)cccc32)c(Cl)c1
Reply | 1.8

Ask | FC(F)(F)c1cccc2c1nnn2CC1CC1 ?
Reply | 0.3

Ask | Now try Fc1ccc(-c2ccc(Cn3nnc4ccccc43)cc2)c(F)c1 .
Reply | 0.9

Ask | Now try Fc1cc(Cl)ccc1-c1ccc(Cn2nnc3ccccc32)cc1 .
Reply | 0.4

Ask | Repeat with Clc1ccc(-c2ccc(Cn3nnc4ccccc43)cn2)cc1
Reply | 0.2

Ask | And what about the compound FC(F)(F)c1cc(Br)c2nnn(CC3CC3)c2c1 ?
Reply | 0.1

----------
Measured Intrinsic clearance accompanies every entry in the list below.
- experiment: Intrinsic clearance in human liver microsomes at 2.5 uM
- Format: ADME, Microsome
Field: numeric (mL/min/g). Do not append units.

Clc1ccc(Cn2nnc3c(Br)cccc32)cc1; 0.6
Brc1cccc2c1nnn2CC1CCC1; 8.7
COc1cccc2c1nnn2CC1CC1; 1.8
Fc1cc(Cn2nnc3c(Br)cccc32)ccc1Cl; 0.4
Fc1ccc2nnn(Cc3ccc(-c4ccc(Cl)cc4F)nc3)c2c1; 0.1

Ask | Consider the molecule Brc1ccc(Cn2nnc3c(Br)cccc32)cc1 and give its measured Intrinsic clearance.
Reply | 0.4

Ask | And what about the molecule Brc1cccc2c1nnn2Cc1ccccc1 ?
Reply | 4.7

Ask | Request: Fc1cccc(Cn2nnc3c(Br)cccc32)c1
Reply | 1.8

----------
Overview of reported log10 of EC50 across a group of compounds:
- assayed.target: Metabotropic glutamate receptor 2 (Homo sapiens, UniProt Q14416)
- experiment: Positive allosteric modulation of human mGluR2 expressed in human Chem1 cells assessed as increase in glutamate-induced intracellular calcium influx preincubated for 30 mins followed by glutamate addition by calcium-5 dye based fluorometric assay
Short version: log10 scale, EC50, nM.

Reference set, count: 5
Fc1ccc2nnn(Cc3ccc(-c4ccc(Cl)cc4F)nc3)c2c1; 1.93
Fc1cc(Cl)ccc1-c1ccc(Cn2nnc3ccccc32)nc1; 2.15
Fc1ccccc1-c1ccc(Cn2nnc3ccccc32)cn1; 2.78
Fc1ccc(Cn2nnc3c(Br)cccc32)cc1; 1.18
Brc1ccc(Cn2nnc3c(Br)cccc32)nc1; 2.26

Ask | Given the entry Brc1cccc2c1nnn2CC1CCCC1 , report its measured log10 of EC50.
Reply | 1.48

Ask | Clc1ccc(-c2ccc(Cn3nnc4ccccc43)cc2)c(Cl)c1 ?
Reply | 1.90

Ask | What do we get for Fc1cc(Br)c2nnn(CC3CC3)c2c1 ?
Reply | 1.85

Ask | Then what about the compound Clc1ccc(Cn2nnc3c(Br)cccc32)cn1 ?
Reply | 2.46

Ask | Now this one: Fc1ccccc1Cn1nnc2c(Br)cccc21
Reply | 1.81

Ask | // same read-out, input: Fc1cc(Cn2nnc3c(Br)cccc32)ccc1Cl
Reply | 1.26

Ask | Same question for CCCn1nnc2c(Br)cccc21 please.
Reply | 2.43

----------
- experiment: Plasma concentration in mouse at 30 mg/kg, po
- Assay type: ADME, organism-based
- experimental.setup: in vivo
Overview of reported concentration across a group of molecules:
Use µM as the unit, but write only the number.

Observe how each entry below is paired with its result.
Fc1cc(Cl)ccc1-c1ccc(Cn2nnc3ccccc32)cn1; 2
Fc1cc(Cl)ccc1-c1ccc(Cn2nnc3c(Br)cccc32)cn1; 20

From here, focus on the item given below.
Ask | Bench note: what concentration did FC(F)(F)c1cccc2c1nnn2CC1CC1 show?
Reply | 12.1

----------
Intrinsic clearance values by entry
- experiment: Intrinsic clearance in Wistar rat liver microsomes at 2.5 uM
- Assay type: ADME, Microsome
Numeric only. Scale: mL/min/g

Some solved cases for reference:
COc1cccc2c1nnn2CC1CC1; 0.8
CCCn1nnc2c(Br)cccc21; 0.8

Ask | Given the molecule Clc1ccc(Cn2nnc3c(Br)cccc32)cc1 , what is its reported Intrinsic clearance?
Reply | 2.2

Ask | Same question, FC(F)(F)c1cc(Br)c2nnn(CC3CC3)c2c1 this time
Reply | 0.2

Ask | Next molecule up: Fc1cc(Cl)ccc1-c1ccc(Cn2nnc3ccccc32)cc1
Reply | 1.3

Ask | Now the same for Fc1ccc2c(c1)nnn2Cc1ccc(-c2ccc(Cl)cc2F)nc1
Reply | 0.5

Ask | Request: c1ccc(-c2ccc(Cn3nnc4ccccc43)cc2)cc1
Reply | 12.6

Ask | Likewise for Clc1cc(Br)c2nnn(CC3CC3)c2c1 ?
Reply | 1.1

Ask | Proceed to Fc1cc(Cl)ccc1-c1ccc(Cn2nnc3c(F)cccc32)cn1
Reply | 0.6

Ask | And for Fc1ccc(-c2ccc(Cn3nnc4ccccc43)cc2)c(Cl)c1 ?
Reply | 2.6

Ask | Also, FC(F)(F)c1cccc2c1nnn2CC1CC1 please.
Reply | 0.3

Ask | Further, for c1ccc(Cn2nnc3ccccc32)cc1 ?
Reply | 1.2

Ask | Another: Fc1ccc2nnn(Cc3ccc(-c4ccc(Cl)cc4F)nc3)c2c1
Reply | 1

Ask | Likewise for Fc1ccc(-c2ccc(Cn3nnc4ccccc43)cc2)c(F)c1 ?
Reply | 6.4

These entries and their values trace back to ChEMBL document CHEMBL4308828.
